Taken from the EternaBench riboswitch data.

Measured apparent Kd values are reported for all entries that follow.
- System: MS2 coat protein
- Assay Method Text: apparent Kd, MS2 coat protein; higher = weaker binding; RNA-MaP array; FMN 200 µM where present
- Assay Setup: ligand present: flavin mononucleotide; designed as: OFF switch for flavin mononucleotide
Result Type: apparent Kd (nM)

[[record]]
macromolecule_sequence = "AAUGGCUGAGGAUAUACACUCACGUCUAAAAGGUUCAAAUGACAUGAGGAUCACCCAUGUAGAAGGCAGCCCGA"
observed_measurement = 50.2

[[record]]
macromolecule_sequence = "AAGUAGGUAGGAUAUGCAUAGAUACAGAUUCAUGUGGAACUACAUGAGGAUCACCCAUGUAGAAGGACCUAAUA"
observed_measurement = 29.6

[[record]]
macromolecule_sequence = "UUAUUUUUACAGAAGGUUUAAUAAUAUGUAUGAGAAGGAUAUGUAACAUGAGGAUCACCCAUGUUUUAUUUAUAUGAGGUUCAU"
observed_measurement = 9.27

[[record]]
macromolecule_sequence = "AUGAGUAAAGCAGGAUAUCUAUUGUCUCUGAAACAUGAGGAUCACCCAUGUAGAGAAGGGCUAAGUCUUACUCUUCGGAGUUGA"
observed_measurement = 10.3

[[record]]
macromolecule_sequence = "AAGUCGAGCGUGAGGAUAUCGACCGGACGACCCAUCGAGAAGGCACAUGAGGAUCACCCAUGUGAUUCAGCUCA"
observed_measurement = 25.9

[[record]]
macromolecule_sequence = "UGAUAGGACAGAGGAUAUACGUGCUAGAGAUACUAGCUACAAAUCCUUACAUGAGGAUCACCCAUGUAGAAGGCUGUCCUAUCU"
observed_measurement = 39.4

[[record]]
macromolecule_sequence = "GUGGUACAUGAGGAUCACCCAUGUUAGGAUAUCGCGUGAGGUAAAACUUACACACACACGAGAAGGGACGUCUU"
observed_measurement = 41

[[record]]
macromolecule_sequence = "AAUAACAGAGGAUAUACUAUUUUAUGUGUUUGUUAUUUUGAACAUGAGGAUCACCCAUGUAGAAGGCUGAAUGA"
observed_measurement = 28

[[record]]
macromolecule_sequence = "CGCGAAUUACAGAAGGGACAAGGGAUAAAACCCAGGUCUUGCAGUAGACAUGAGGAUCACCCAUGUCAGGAUAUGUAGAGAGUU"
observed_measurement = 95.5

[[record]]
macromolecule_sequence = "GUGUAGAUAGGAUAUGCUGGAAUCUAGCGAAGCUAGGUUCCACAUGAGGAUCACCCAUGUAGAAGGGUCUACAC"
observed_measurement = 54

[[record]]
macromolecule_sequence = "GUAGAGUAGUGAGGAUAUACGAGAUCGAUAGAUCGGCGAUCCAUAUAUACAUGAGGAUCACCCAUGUAGAAGGCACUUCUCUAC"
observed_measurement = 103

[[record]]
macromolecule_sequence = "UAGUAUAAGGGCAUUAAACAUGAGGAUCACCCAUGUACGAUAGAGGAUAUGCAUUUCAGUUUAGAGUAGAAGGUUAGAGAAUUG"
observed_measurement = 41.6

[[record]]
macromolecule_sequence = "GGUGAAGCAGGAUAUGUAUCGAUAUACAUGAGGAUCACCCAUGUCAUGUUCGAAUCGCAUAUAGAAGGGCUUCACC"
observed_measurement = 16.7

[[record]]
macromolecule_sequence = "UGUCGGAGCAGAGGAUAUUACAUGAGGAUCACCCAUGUAUGAACCAAUAGCUGGAAACAGCAAUGUAAGAAGGCUGCUCCGACC"
observed_measurement = 153

[[record]]
macromolecule_sequence = "GUGUAGACAGGAUAUGCUUUGAGCAUAUGAGAGUAUGCUCGACAUGAGGAUCACCCAUGUAGAAGGGUCUACAC"
observed_measurement = 12.9

[[record]]
macromolecule_sequence = "AACCUAGUCAUAGGAUAUACAGGCAAAGCCAAAGUAGAAGGAUGACACAUGAGGAUCACCCAUGUGGUCCUUGAACAAAAUAAC"
observed_measurement = 196

[[record]]
macromolecule_sequence = "GAUCCUUCUGUUAGGAUAUGCUUUGGGCUUCCGCAGCAGAAGGAACAUGAGGAUCACCCAUGUCAAAUAACAUC"
observed_measurement = 22.8

[[record]]
macromolecule_sequence = "UGGGCUACGUGGUCCGCCAGACGUAGAAGGGUCUACAUGAGGAUCACCCAUGUGACCGUUAGUGGACAGGAUAUACGCGGAGUG"
observed_measurement = 22.8

[[record]]
macromolecule_sequence = "AAAAAGUCAGGAUAUACAUGAGGAUCACCCAUGUAGCAUACGAAAAAGAGUGUGCAGUGUAGAAGGGACAAAAA"
observed_measurement = 25.7

[[record]]
macromolecule_sequence = "GGCAAGUCAGGAUAUGCGAAGUCAGGACACACACUGACGAAGCAGAAGGGACAUGAGGAUCACCCAUGUAAGCC"
observed_measurement = 19.9

[[record]]
macromolecule_sequence = "UGCUGUGUCAGAGGAUAUACGUCAAUAAUCCAUUGCAAAUAGCGAUGGACAUGAGGAUCACCCAUGUAGAAGGCUGUCACAGCA"
observed_measurement = 242

[[record]]
macromolecule_sequence = "CUGGGAUAGUGGGAUAGGGUUGCCAGAAGGGUCUACAUGAGGAUCACCCAUGUGGGUCCGAGUGGACAGGAUAUGGCGUCCGUA"
observed_measurement = 45.3

[[record]]
macromolecule_sequence = "AACAAACAUGAGGAUCACCCAUGUCAGGAUAUGCACAAACAAACAAACAAACAAGCAAGCAGAAGGGACACAAC"
observed_measurement = 39.7

[[record]]
macromolecule_sequence = "CCUGAGUCAGGAUAUUGUACCGGCCUGAAGCCAGACCGACCCAAGAAGGGACAUGAGGAUCACCCAUGUGAAAA"
observed_measurement = 24.7

[[record]]
macromolecule_sequence = "GUUUCGGGAGGAUAUGCGUGGAUUAUUCUCGUAUGUUGUUUACAUGAGGAUCACCCAUGUAGAAGGUCUGGAGC"
observed_measurement = 300

[[record]]
macromolecule_sequence = "UGUGAGUUGAUCUUAGAUCGGAGUACAUGAGGAUCACCCAUGUAGGAUAUUCAAAGACGCAGAUAGAAGAAGGACAUAGGUUUC"
observed_measurement = 13.8

[[record]]
macromolecule_sequence = "AAUGUUUGAUUCCACUUAUACAUGAGGAUCACCCAUGUUAUCGAGGAUAUGCAUUAGAGCGUUUAGCAGAAGGCGAUGUAAUUG"
observed_measurement = 20.3

[[record]]
macromolecule_sequence = "GGGACUUACGAGAAGGGCUACAUGAGGAUCACCCAUGUAAAUCUUCGGGUAGCAGGAUAUCGGCGGCUACAGGAGGGCCAAGUC"
observed_measurement = 90.7

[[record]]
macromolecule_sequence = "CAUAAGAUAGGAUAUACAGGCCCGUCUUUAUAUUGAUCCCGACAUGAGGAUCACCCAUGUAGAAGGAUCAUAUG"
observed_measurement = 15.2

